assay: The therapeutic safety margin (TSM) is the ratio of the minimum lethal dose (mg/kg)to the MED; assay type: ADME, organism-based; details: in vivo
ENDPOINT: therapeutic safety margin (minimum lethal dose / MED)
Answer with a bare number; do not write a unit.

Bench note: what therapeutic safety margin (minimum lethal dose / MED) did Cc1cnsc1C(c1ccc(C(C)C)cc1)N1CCNCC1 (stereo not drawn) show?
10

Bench note: what therapeutic safety margin (minimum lethal dose / MED) did CC(C)c1ccc(C(c2ccns2)N2CCN(C)CC2)cc1 (stereo not drawn) show?
14

Bench note: what therapeutic safety margin (minimum lethal dose / MED) did Cc1cc(C(c2ccc(C(C)C)cc2)N2CCN(CCO)CC2)sn1 (stereo not drawn) show?
20

###

test system: Rattus norvegicus; assay: Hypolipidemic activity was measured as reduction in rat serum triglyceride after oral administration in male Wistar rats at 50 mg / (kg day); assay type: functional
Lab note: compare Reduction with 40%, writing Criterion met if less and Criterion not met if equal or more.

Reference set, count: 3
COc1ccccc1C(c1ccns1)N1CCN(C)CC1 (centres undefined) = Criterion met
CC(C)c1ccc(C(c2ccns2)N2CCN(C)CC2)cc1 (centres undefined) = Criterion not met
COc1ccccc1C(c1cc(C)ns1)N1CCN(C)CC1 (centres undefined) = Criterion met

Identify whether the compound CN1CCN(C(c2ccccc2)c2ccns2)CC1 (centres undefined) records Reduction below 40%.
Criterion met

Identify whether the compound CCCCc1ccc(C(c2cc(C)ns2)N2CCN(C)CC2)cc1 (centres undefined) records Reduction below 40%.
Criterion met

Identify whether the compound Cc1cc(C(c2ccccc2Cl)N2CCN(C)CC2)sn1 (centres undefined) records Reduction below 40%.
Criterion not met

Identify whether the compound Cc1cc(C(c2ccc(C(C)C)cc2)N2CCN(C)CC2)sn1 (centres undefined) records Reduction below 40%.
Criterion not met

Identify whether the compound CN1CCN(C(c2ccc(Cl)cc2)c2ccns2)CC1 (centres undefined) records Reduction below 40%.
Criterion met

Identify whether the compound Cc1cc(C(c2ccccc2C)N2CCN(C)CC2)sn1 (centres undefined) records Reduction below 40%.
Criterion met

###

Some compounds, each annotated with its measured Reduction.
tested on: Rattus norvegicus; experiment: Hypolipidemic activity was measured as reduction in rat serum triglyceride after oral administration in male Wistar rats at 10 mg / (kg day); format: functional
Give your result in % as a bare value.

Cc1cnsc1C(c1ccccc1Cl)N1CCN(C)CC1 (configuration not stated) = 1
Cc1cc(C(c2ccc(C(C)C)cc2)N2CCNCC2)sn1 (stereo in doubt; 33) = 38
CC(C)c1ccccc1C(c1ccns1)N1CCN(C)CC1 (configuration not stated) = 31

Bench note: what Reduction did CC(C)c1ccc(C(c2ccns2)N2CCNCC2)cc1 (configuration not stated) show?
65

Bench note: what Reduction did CCc1ccc(C(c2sncc2C)N2CCN(CCO)CC2)cc1 (configuration not stated) show?
3

Bench note: what Reduction did Cc1ccccc1C(c1c(C)noc1C)N1CCNCC1 (configuration not stated) show?
46

Bench note: what Reduction did Cc1cnsc1C(c1ccc(C(C)C)cc1)N1CCN(C)CC1 (configuration not stated) show?
42

Bench note: what Reduction did Cc1cnsc1C(c1ccc(C(C)C)cc1)N1CCN(CCO)CC1 (configuration not stated) show?
48

###

test system: Rattus norvegicus; assay: Hypolipidemic activity was measured as reduction in rat serum cholesterol after oral administration in male Wistar rats at 100 mg/(kg day); assay type: functional
ENDPOINT: Reduction

Look over these answered cases.
Cc1noc(C)c1C(OC1CCCN(C)C1)c1ccc(C(C)C)cc1 (centres undefined) = 79%
Cc1cnsc1C(c1ccc(C(C)C)cc1)N1CCN(CCCO)CC1 (centres undefined) = 80%

Bench note: what Reduction did `Cc1noc(C)c1C(=C1CCN(C)CC1)c1ccc(C(C)C)cc1` show?
82%

Bench note: what Reduction did Cc1nc(C)c(C(c2ccccc2Cl)N2CCN(C)CC2)s1 (centres undefined) show?
78%

Bench note: what Reduction did Cc1cc(C(c2ccc(C(C)C)cc2)C2CCN(C)CC2)sn1 (centres undefined) show?
45%

Bench note: what Reduction did Cc1cnsc1C(c1ccc(CC(C)C)cc1)N1CCN(CCO)CC1 (centres undefined) show?
85%

Bench note: what Reduction did Cc1cnsc1C(c1ccc(C(C)C)cc1)N1CCN(C)CC1 (centres undefined) show?
68%

Bench note: what Reduction did Cc1cc(C(O)(c2ccc(C(C)C)cc2)C2CCN(C)CC2)sn1 (centres undefined) show?
67%

Bench note: what Reduction did Cc1cnsc1C(c1ccc(C(C)C)cc1)N1CCN(CCO)CC1 (centres undefined) show?
87%

###

Some compounds, each annotated with its measured Reduction.
test system: Rattus norvegicus; test: Hypolipidemic activity was measured as reduction in rat serum cholesterol after oral administration in male Wistar rats at 100 mg/(kg day); assay type: functional
Give your result in % as a bare value.

Look over these answered cases.
CC(C)c1ccc(C(c2ccns2)N2CCNCC2)cc1 (stereo not drawn) = 84
Cc1noc(C)c1C(c1ccc(C(C)C)cc1)N1CCN(C)CC1 (stereo not drawn) = 87

Continue with the compound presented below.
Bench note: what Reduction did Cc1noc(C)c1C(c1ccc(C(C)C)cc1)N1CCN(CCO)CC1 (stereo not drawn) show?
84

###

Some molecules, each annotated with its measured Reduction.
tested on: Rattus norvegicus; experiment: Hypolipidemic activity was measured as reduction in rat serum triglyceride after oral administration in male Wistar rats at 100 mg / (kg day); assay type: functional
// return the numeric value with its unit appended

Look over these answered cases.
Cc1noc(C)c1C(c1ccc(C(C)C)cc1)N1CCN(CCO)CC1 (centres undefined) = 84%
Cc1cc(C(c2ccc(C(C)C)cc2)N2CCN(S(C)(=O)=O)CC2)sn1 (centres undefined) = 3%
CN1CCN(C(c2ccns2)c2ccccc2Cl)CC1 (centres undefined) = 52%

Continue with the molecule presented below.
Bench note: what Reduction did Cc1cc(C(c2ccc(Cl)cc2)N2CCN(C)CC2)sn1 (centres undefined) show?
2%

###

test system: Rattus norvegicus; assay: Hypolipidemic activity was measured as reduction in rat serum cholesterol after oral administration in male Wistar rats at 3 mg / (kg day); format: functional
ENDPOINT: Reduction (%)
Give your result in % as a bare value.

Look over these answered cases.
Cc1cc(C(=C2CCN(C)CC2)c2ccc(C(C)C)cc2)sn1 = 26
Cc1cnsc1C(c1ccc(C(C)C)cc1)N1CCN(CCCO)CC1 (stereo not drawn) = 19
CCCc1ccc(C(c2ccns2)N2CCN(C)CC2)cc1 (stereo not drawn) = 31
CC(C)c1ccccc1C(c1ccns1)N1CCN(C)CC1 (stereo not drawn) = 15
Cc1noc(C)c1C(=C1CCNCC1)c1ccc(C(C)C)cc1 = 44
CC(C)c1ccc(C(c2ccns2)N2CCNCC2)cc1 (stereo not drawn) = 57

Bench note: what Reduction did Cc1cnsc1C(c1ccc(C(C)C)cc1)N1CCN(C)CC1 (stereo not drawn) show?
31

Bench note: what Reduction did Cc1cnsc1C(c1ccc(C(C)C)cc1)N1CCN(CC(C)O)CC1 (stereo not drawn) show?
8

###

system: Rattus norvegicus; assay: Hypolipidemic activity was measured as reduction in rat serum triglyceride after oral administration in male Wistar rats at 100 mg / (kg day); format: functional
ENDPOINT: Reduction (%)
Give your result in % as a bare value.

Cc1cc(C(c2ccc(F)cc2)N2CCN(C)CC2)sn1 (stereo unspecified) = 15
Cc1cc(C(c2ccc(C(C)C)cc2)N2CCN(C(=O)c3ccccc3)CC2)sn1 (stereo unspecified) = 16

Any idea what Reduction came out for Cc1cc(C(c2ccc(C(C)C)cc2)C2CCN(C)CC2)sn1 (stereo unspecified) on Rattus norvegicus?
42

Any idea what Reduction came out for Cc1cc(C(c2ccc(C(C)C)cc2)N2CC(C)NC(C)C2)sn1 (stereo unspecified) on Rattus norvegicus?
32

Any idea what Reduction came out for Cc1ccccc1C(c1c(C)noc1C)N1CCN(C)CC1 (stereo unspecified) on Rattus norvegicus?
75

Any idea what Reduction came out for Cc1cnsc1C(c1ccc(CC(C)C)cc1)N1CCN(CCO)CC1 (stereo unspecified) on Rattus norvegicus?
97

Any idea what Reduction came out for Cc1ccc(C(c2sncc2C)N2CCN(C)CC2)cc1C (stereo unspecified) on Rattus norvegicus?
73

###

Some compounds, each annotated with its measured Reduction.
test system: Rattus norvegicus; test: Hypolipidemic activity was measured as reduction in rat serum triglyceride after oral administration in male Wistar rats at 1 mg / (kg day); assay type: functional
Give your result in % as a bare value.

Look over these answered cases.
Cc1noc(C)c1C(c1ccc(C(C)C)cc1)N1CCN(C)CC1 (stereo not drawn) = 31
Cc1cc(C(=C2CCN(C)CC2)c2ccc(C(C)C)cc2)sn1 = 3

Continue with the compound presented below.
Bench note: what Reduction did Cc1noc(C)c1C(c1ccc(C(C)C)cc1)N1CCNCC1 (stereo not drawn) show?
22

###

tested on: Rattus norvegicus; assay: Hypolipidemic activity was measured as reduction in rat serum triglyceride after oral administration in male Wistar rats at 100 mg / (kg day); assay type: functional
ENDPOINT: Reduction (%)
Give your result in % as a bare value.

Look over these answered cases.
Cc1cnsc1C(c1ccc(C(C)C)cc1)N1CCN(CC(C)O)CC1 (configuration not stated) = 81
Cc1cnsc1C(c1ccc(C(C)C)cc1)N1CCN(C)CC1 (configuration not stated) = 89
Cc1cc(C(SCCN(C)C)c2ccc(C(C)C)cc2)sn1 (configuration not stated) = 55

Bench note: what Reduction did Cc1cc(C(c2ccc(C(C)C)cc2)N2CCNCC2)sn1 (stereo in doubt; 66) show?
73

Bench note: what Reduction did `Cc1noc(C)c1C(=C1CCN(C)CC1)c1ccc(C(C)C)cc1` show?
90

Bench note: what Reduction did Cc1cc(C(c2ccc(C(C)C)cc2)N2CCCCC2)sn1 (configuration not stated) show?
1

Bench note: what Reduction did CCC(C)c1ccc(C(c2cc(C)ns2)N2CCN(C)CC2)cc1 (configuration not stated) show?
87
